Each entry below carries its reported viability, T/C.
tested on: 565232-114-T-J1-PDC complex spheroid viability; assay: Anticancer human tumor 565232-114-T-J1-PDC patient-derived bladder carcinoma cell line growth inhibition [CLK]; settings: second compound 10 µM; first compound 0.1 µM; stronger effect = lower value;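 also: spheroids exposed to compounds for 7 days before readout; 100% = DMSO vehicle wells with luminescence normalized to vehicle control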
Respond numerically; units are % and should not be typed.

>  <compound>
CC(CO)NC(=O)c1cc(-c2ccc(Cl)cc2)nn(-c2cnn(C)c2)c1=O (stereo not given) + CN1CCN(c2cc(C(=O)Nc3cc4cc(-c5cnn(C)c5)ccc4cn3)ccn2)CC1

>  <unit_info>
%

>  <viability, T/C>
0.28

$$$$
>  <compound>
C=C(F)C(=O)N1CCN(c2nc(OCC3CCCN3C)nc3c2CCN(c2cccc4cccc(Cl)c24)C3)CC1CC#N (stereo not given) + CNC(=O)c1ccc(Nc2nc(OC3CCCC3)c3c(-c4ccc5nc(C)oc5c4)c[nH]c3n2)c(OC)c1

>  <unit_info>
%

>  <viability, T/C>
18.9

$$$$
>  <compound>
Cn1ncnc1[C@H]1c2n[nH]c(=O)c3cc(F)cc(c23)N[C@@H]1c1ccc(F)cc1 + CN1CCN(c2cc(C(=O)Nc3cc4cc(-c5cnn(C)c5)ccc4cn3)ccn2)CC1

>  <unit_info>
%

>  <viability, T/C>
1.35

$$$$
>  <compound>
Cn1ncnc1[C@H]1c2n[nH]c(=O)c3cc(F)cc(c23)N[C@@H]1c1ccc(F)cc1 + CNC(=O)c1ccc(Nc2nc(OC3CCCC3)c3c(-c4ccc5nc(C)oc5c4)c[nH]c3n2)c(OC)c1

>  <unit_info>
%

>  <viability, T/C>
11.4

$$$$
>  <compound>
Nc1ccccc1NC(=O)c1ccc(CNC(=O)OCc2cccnc2)cc1 + CN1CCN(c2cc(C(=O)Nc3cc4cc(-c5cnn(C)c5)ccc4cn3)ccn2)CC1

>  <unit_info>
%

>  <viability, T/C>
0.5

$$$$

Query: Look up and report measured viability, T/C for this entry: CC1(C)CCC(CN2CCN(c3ccc(C(=O)NS(=O)(=O)c4ccc(NCC5CCOCC5)c([N+](=O)[O-])c4)c(Oc4cnc5[nH]ccc5c4)c3)CC2)=C(c2ccc(Cl)cc2)C1 + CNC(=O)c1ccc(Nc2nc(OC3CCCC3)c3c(-c4ccc5nc(C)oc5c4)c[nH]c3n2)c(OC)c1
Response: 19.9

Query: Look up and report measured viability, T/C for this entry: COC1C=CCC(C)C(C)S(=O)(=O)NC(=O)c2ccc3c(c2)N(CC2CCC21)CC1(CCCc2cc(Cl)ccc21)CO3 (stereo not given) + CNC(=O)c1ccc(Nc2nc(OC3CCCC3)c3c(-c4ccc5nc(C)oc5c4)c[nH]c3n2)c(OC)c1
Response: 9.12

Query: Look up and report measured viability, T/C for this entry: CCN1CCN(Cc2ccc(Nc3ncc(F)c(-c4cc(F)c5nc(C)n(C(C)C)c5c4)n3)nc2)CC1 + CN1CCN(c2cc(C(=O)Nc3cc4cc(-c5cnn(C)c5)ccc4cn3)ccn2)CC1
Response: 0.16

Query: Look up and report measured viability, T/C for this entry: O=C(c1cc(Cc2n[nH]c(=O)c3ccccc23)ccc1F)N1CCN(C(=O)C2CC2)CC1 + CN1CCN(c2cc(C(=O)Nc3cc4cc(-c5cnn(C)c5)ccc4cn3)ccn2)CC1
Response: 0.19

Query: Look up and report measured viability, T/C for this entry: C=CC(=O)N1CCN(c2nc(=O)n(-c3c(C)ccnc3C(C)C)c3nc(-c4c(O)cccc4F)c(F)cc23)C(C)C1 (stereo not given) + CNC(=O)c1ccc(Nc2nc(OC3CCCC3)c3c(-c4ccc5nc(C)oc5c4)c[nH]c3n2)c(OC)c1
Response: 14.6

Hello, the source for this data is PubChem BioAssay AID2060612, in case you need it.
